Sourced from paper PMC6177315

# targetSystem: T1, human eIF5B_(951–1220), comprising domains 3 and 4 (GH-eIF5B-D34) (human, UniProt O60841 951-1220)
# T1 sequence (looked up): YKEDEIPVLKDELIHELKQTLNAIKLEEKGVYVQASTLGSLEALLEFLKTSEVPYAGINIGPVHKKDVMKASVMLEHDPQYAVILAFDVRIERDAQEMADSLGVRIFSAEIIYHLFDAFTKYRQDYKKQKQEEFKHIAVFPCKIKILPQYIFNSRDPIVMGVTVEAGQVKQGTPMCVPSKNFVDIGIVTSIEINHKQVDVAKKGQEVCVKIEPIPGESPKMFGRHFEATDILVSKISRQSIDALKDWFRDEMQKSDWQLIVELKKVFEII
# assayProtocol: fluorescence polarisation
endpointLabel: Kd (nM)

{"binder": "DDDIDIDAI (peptide, UniProt P55010 423-431, looked up) [eIF5 fragment comprising the C-terminal 9 residues (eIF5-CT9)]", "endpointLabel": "Kd", "endpointResult": 1200}
{"binder": "EEEDEDENIEVVYSKAASVPKVETVKSDNKDDDIDIDAI (peptide, UniProt P55010 393-431, looked up) [eIF5 fragment comprising the C-terminal 39 residues (eIF5-CT39)]", "endpointLabel": "Kd", "endpointResult": 1100}
{"binder": "eIF5_(196–431) (GH-eIF5-CTD) (domain or fragment, human, UniProt P55010 196-431, looked up) EEEEDDDWGEDTTEEAQRRRMDEISDHAKVLTLSDDLERTIEERVNILFDFVKKKKEEGVIDSSDKEIVAEAERLDVKAMGPLVLTEVLFNEKIREQIKKYRRHFLRFCHNNKKAQRYLLHGLECVVAMHQAQLISKIPHILKEMYDADLLEEEVIISWSEKASKKYVSKELAKEIRVKAEPFIKWLKEAEEESSGGEEEDEDENIEVVYSKAASVPKVETVKSDNKDDDIDIDAI", "endpointLabel": "Kd", "endpointResult": 720}
